Assay: Pharmacokinetic study, single intravenous injection to beagle dogs, docetaxel macromolecules (Test Example 2)
Format: in vivo
Conditions: both sexes, dog, single IV 3 mg/kg, free docetaxel in plasma, mean (1 male + 1 female)

{"columns": ["Structure as smiles", "AUC(0-inf) / ng·h/mL"],
 "data": [
  ["CC(=O)O[C@@]12CO[C@@H]1C[C@H](O)[C@@]1(C)C(=O)[C@H](O)C3=C(C)[C@@H](OC(=O)[C@H](O)[C@@H](NC(=O)OC(C)(C)C)c4ccccc4)C[C@@](O)([C@@H](OC(=O)c4ccccc4)[C@H]21)C3(C)C", 2040]
]}

----------
Assay: Pharmacokinetic study, single intravenous injection to beagle dogs, docetaxel macromolecules (Test Example 2)
Format: in vivo
Conditions: both sexes, dog, single IV 3 mg/kg, free docetaxel in plasma, mean (1 male + 1 female)
Reported metric: AUC(0-t)

{"columns": ["Molecule", "Assay result"],
 "data": [
  ["CC(=O)O[C@@]12CO[C@@H]1C[C@H](O)[C@@]1(C)C(=O)[C@H](O)C3=C(C)[C@@H](OC(=O)[C@H](O)[C@@H](NC(=O)OC(C)(C)C)c4ccccc4)C[C@@](O)([C@@H](OC(=O)c4ccccc4)[C@H]21)C3(C)C [Docetaxel]", "1890 ng·h/mL"]
]}

----------
Test: Pharmacokinetic study, single intravenous injection to rats (Test Example 1)
Assay type: in vivo, SD rats
Details: rat; female SD rats, single IV 10 mg/kg, docetaxel level in plasma, N=3
Reported metric: Cmax (ng/mL)

{"columns": ["Compound", "Assay result"],
 "data": [
  ["CC(=O)O[C@@]12CO[C@@H]1C[C@H](O)[C@@]1(C)C(=O)[C@H](O)C3=C(C)[C@@H](OC(=O)[C@H](O)[C@@H](NC(=O)OC(C)(C)C)c4ccccc4)C[C@@](O)([C@@H](OC(=O)c4ccccc4)[C@H]21)C3(C)C [Docetaxel]", 1990]
]}

----------
Experiment: Pharmacokinetic study, single intravenous injection to beagle dogs, docetaxel macromolecules (Test Example 2)
Format: in vivo
Settings: both sexes, dog, single IV 3 mg/kg, free docetaxel in plasma, mean (1 male + 1 female)

{"columns": ["Structure as smiles", "clearance / mL/min/kg"],
 "data": [
  ["CC(=O)O[C@@]12CO[C@@H]1C[C@H](O)[C@@]1(C)C(=O)[C@H](O)C3=C(C)[C@@H](OC(=O)[C@H](O)[C@@H](NC(=O)OC(C)(C)C)c4ccccc4)C[C@@](O)([C@@H](OC(=O)c4ccccc4)[C@H]21)C3(C)C", 24.6]
]}

----------
Experiment: Pharmacokinetic study, single intravenous injection to rats (Test Example 1)
Format: in vivo, SD rats
Details: rat; female SD rats, single IV 10 mg/kg, docetaxel level in plasma, N=3

{"columns": ["Structure as smiles", "AUC(0-t) [ng·h/mL]"],
 "data": [
  ["CC(=O)O[C@@]12CO[C@@H]1C[C@H](O)[C@@]1(C)C(=O)[C@H](O)C3=C(C)[C@@H](OC(=O)[C@H](O)[C@@H](NC(=O)OC(C)(C)C)c4ccccc4)C[C@@](O)([C@@H](OC(=O)c4ccccc4)[C@H]21)C3(C)C", 1400]
]}

----------
Test: Pharmacokinetic study, single intravenous injection to rats (Test Example 1)
Assay type: in vivo, SD rats
Conditions: rat; female SD rats, single IV 10 mg/kg, docetaxel level in plasma, N=3; read-out: VdSS
Experimental: • (1) Preparation of docetaxel: commercially available docetaxel injection (0.5 mL:20 mg) was diluted to 4 mg/mL with normal saline; • (2) Preparation of other test compounds: the compounds were dissolved in DMSO with a final concentration of 5%, and the solutions were diluted to 4 mg/mL with normal saline. Female SD rats, weighing 160-180 g, 6 weeks old, SPF Plasma samples were separated, and the esterase inhibitor DDVP was added. […]

{"columns": ["Structure as smiles", "Vd"],
 "data": [
  ["CC(=O)O[C@@]12CO[C@@H]1C[C@H](O)[C@@]1(C)C(=O)[C@H](O)C3=C(C)[C@@H](OC(=O)[C@H](O)[C@@H](NC(=O)OC(C)(C)C)c4ccccc4)C[C@@](O)([C@@H](OC(=O)c4ccccc4)[C@H]21)C3(C)C", "12.1 L/kg"]
]}

----------
Assay: Pharmacokinetic study, single intravenous injection to beagle dogs, docetaxel macromolecules (Test Example 2)
Assay type: in vivo
Conditions: both sexes, dog, single IV 3 mg/kg, free docetaxel in plasma, mean (1 male + 1 female), read-out: Vdss
Reported metric: Vd (L/kg)

{"columns": ["Structure as smiles", "Value units", "Assay result"],
 "data": [
  ["CC(=O)O[C@@]12CO[C@@H]1C[C@H](O)[C@@]1(C)C(=O)[C@H](O)C3=C(C)[C@@H](OC(=O)[C@H](O)[C@@H](NC(=O)OC(C)(C)C)c4ccccc4)C[C@@](O)([C@@H](OC(=O)c4ccccc4)[C@H]21)C3(C)C", "L/kg", 7.39]
]}

----------
Assay: Pharmacokinetic study, single intravenous injection to rats (Test Example 1)
Type: in vivo, SD rats
Details: rat; female SD rats, single IV 10 mg/kg, docetaxel level in plasma, N=3
Reported metric: AUC(0-inf) (ng·h/mL)

{"columns": ["Structure as smiles", "Assay result"],
 "data": [
  ["CC(=O)O[C@@]12CO[C@@H]1C[C@H](O)[C@@]1(C)C(=O)[C@H](O)C3=C(C)[C@@H](OC(=O)[C@H](O)[C@@H](NC(=O)OC(C)(C)C)c4ccccc4)C[C@@](O)([C@@H](OC(=O)c4ccccc4)[C@H]21)C3(C)C", 1480]
]}

----------
Assay: Pharmacokinetic study, single intravenous injection to beagle dogs, docetaxel macromolecules (Test Example 2)
Assay type: in vivo
Conditions: both sexes, dog, single IV 3 mg/kg, free docetaxel in plasma, mean (1 male + 1 female)

{"columns": ["Molecule", "half-life (h)"],
 "data": [
  ["CC(=O)O[C@@]12CO[C@@H]1C[C@H](O)[C@@]1(C)C(=O)[C@H](O)C3=C(C)[C@@H](OC(=O)[C@H](O)[C@@H](NC(=O)OC(C)(C)C)c4ccccc4)C[C@@](O)([C@@H](OC(=O)c4ccccc4)[C@H]21)C3(C)C [Docetaxel]", 13.5]
]}

----------
Assay: Pharmacokinetic study, single intravenous injection to rats (Test Example 1)
Type: in vivo, SD rats
Settings: rat; female SD rats, single IV 10 mg/kg, docetaxel level in plasma, N=3
Reported metric: C0 (ng/mL)

{"columns": ["Structure as smiles", "Value units", "Assay result"],
 "data": [
  ["CC(=O)O[C@@]12CO[C@@H]1C[C@H](O)[C@@]1(C)C(=O)[C@H](O)C3=C(C)[C@@H](OC(=O)[C@H](O)[C@@H](NC(=O)OC(C)(C)C)c4ccccc4)C[C@@](O)([C@@H](OC(=O)c4ccccc4)[C@H]21)C3(C)C", "ng/mL", 2840]
]}
